Tested on: WS1 human fibroblast cell line
METHOD_DESCRIPTION: Cell viability assay, WS1 toxicity control
Format: cell-based
CONDITION_LABEL: Homo sapiens, Fibroblast, n = 4, nonspecific toxicity control
VALUE_KIND: IC50 (µM)
Numbers only, in µM.

Solved entries:
COMPOUND: C#Cc1cccc(Nc2ncnc3cc(OC)c(OC)cc23)c1
REPORTED_RESULT: 15

COMPOUND: C#Cc1cccc(Nc2ncnc3ccc(I)cc23)c1
REPORTED_RESULT: 98

# evaluate next
# value of IC50, WS1 human fibroblast cell line, item C#Cc1cccc(Nc2ncnc3cc(OCCOC)c(OCCOC)cc23)c1 [Erlotinib, reference compound] = 19
